test system: COLO 205 colon; assay: NCI-60 one-dose screen, 48 h (100 = growth as untreated, 0 = no growth, -100 = all killed); details: 10 µM unless noted
This is part of a sample that, as a whole, favours compounds with a hit. Of some 83,000 tested, about 20% had one in any assay.
Returns label 1 if the recorded growth is greater than or equal to 50%, and label 0 otherwise.

• CCCCCn1sc(=O)n(Cc2ccc(CNC(=O)OCc3ccc4c(Cl)cc(Cl)c(O)c4n3)cc2)c1=O = label 1
• Nc1c(C(=O)Nc2cccc3ncccc23)sc2nc3c(cc12)C(=O)CCC3 = label 0
• COc1ccc(/C=C/C(=O)c2cc3c(N)c(C(=O)Nc4ccccc4C)sc3nc2C)cc1 = label 0
• CCOC(=O)C1=C(C)N=C2SC=C(c3ccccc3)N2[C@H]1c1cn[nH]c1-c1ccc(Cl)cc1 = label 1
• CC1CN=C(c2cccc(-c3ccc(-c4ccccc4)o3)c2)N1 (stereo not given) = label 0

Then there is this compound:
Evaluate "COc1ccc2c(c1)c(-c1ccc(-c3cn(C)c4ccc(OC)cc34)[nH]1)cn2C" : growth at minimum 50%?
label 0

----------
system: RPMI-8226 leukemia; assay: NCI-60 one-dose screen, 48 h (100 = growth as untreated, 0 = no growth, -100 = all killed); conditions: 10 µM unless noted
The panel holds about 83,000 compounds, 20% with a hit somewhere; the sample as a whole holds those more often.
measureName: growth (%)
Write it as a number; the unit % goes unstated.

Worked cases, growth given:
- CCOC(=O)c1c(-c2ccccc2)n2c(=O)cc(C)c3c(O)c(O)cc1c32: 36.5
- CCOC(=O)c1c(NC(=O)c2ccc(C(C)(C)C)cc2)sc2cc(O)ccc12: 104
- COc1cccc(/C=C/C(=O)c2cc3c(N)c(C(=O)Nc4cccc(Cl)c4C)sc3nc2C)c1: -32.6
- CCn1cc(C(=O)N/N=C/c2ccc(Br)cc2)c(=O)c2cc(F)c(N3CCNC(C)C3)c(F)c21 (configuration not stated): -14.8
- CC[C@H](CC[C@@H](C)[C@H]1CC[C@H]2[C@@H]3CC[C@@H]4CC(=O)/C(=C\c5ccncc5)C[C@]4(C)[C@H]3CC[C@]12C)C(C)C: 92.2
- COc1ccc2nc3ccccc3c(NCc3ccc(F)cc3)c2c1: -43
- COc1ccc(C2CC(c3ccc(Nc4nc(Nc5ccc(F)cc5)nc(Nc5ccc(F)cc5)n4)cc3)=NN2C(C)=O)cc1 (configuration not stated): 7.18
- COc1ccc(NC(=O)c2sc3nc(C)c(C(O)c4ccccc4)cc3c2N)cc1 (configuration not stated): 11.8

For RPMI-8226 leukemia, provide growth of "O=C1Nc2ccccc2/C1=C/c1cn(C[C@@H](O)Cn2c3ccccc3c(=O)c3ccccc32)c2ccccc12" please.
67.1

For RPMI-8226 leukemia, provide growth of "COc1cc(Nc2c3ccc(Cl)cc3nc3ccc(OC)cc23)c2ncccc2c1" please.
55.5

For RPMI-8226 leukemia, provide growth of "O=C(Nc1ncc(Cc2ccccc2Cl)s1)c1cccs1" please.
73.5

----------
tested on: SK-MEL-28 melanoma; test: NCI-60 one-dose screen, 48 h (100 = growth as untreated, 0 = no growth, -100 = all killed); conditions: 10 µM unless noted
Compounds without any hit were thinned out: in the full panel of roughly 83,000, 20% have a hit. Calls of active or inactive are those of the source. The calls were made as follows: active = growth percent below 10; inactive = the rest.
measureName: growth

Tell me the measured growth of "COc1ccc2cc(-c3cnc4nonc4n3)ccc2c1" , please.
86.3% (inactive)

Tell me the measured growth of "C#Cc1cccc(Nc2nc3ccc([N+](=O)[O-])cc3nc2Nc2cccc(C#C)c2)c1" , please.
-69.4% (active)

Tell me the measured growth of "O=[N+]([O-])/C(=C\c1ccco1)c1ccccc1Cl" , please.
60.3% (inactive)

Tell me the measured growth of "CCOC(=O)N1CCN(S(=O)(=O)c2oc(-c3ccc(Cl)cc3)nc2C#N)CC1" , please.
105% (inactive)

Tell me the measured growth of "O=C(OC[C@@H]1CO1)c1cccc2c(=O)c3ccccc3[nH]c12" , please.
-62.6% (active)

Tell me the measured growth of "CC[C@]12C=CCN3CC[C@@]4(c5ccc(OC)cc5N(C)[C@H]4[C@@](O)(C(=O)OC)[C@@H]1OC(=O)CCCN1CCOCC1)[C@@H]32" , please.
109% (inactive)

Tell me the measured growth of "COc1cc(-c2nc(SCCC(C)C)nc(N3CCOCC3)c2C#N)cc(OC)c1OC" , please.
108% (inactive)

Tell me the measured growth of "C/C(=N\O)C(=O)NCCCCCC(=O)Nc1ccccc1" , please.
114% (inactive)

Tell me the measured growth of "CCOC(=O)c1cn2ncnc(Oc3ccc(NC(=O)NC4CC4)c(F)c3)c2c1C" , please.
108% (inactive)

Tell me the measured growth of "COc1ccc(Cc2nnc(Nc3nc4ccccc4s3)s2)cc1" , please.
92.3% (inactive)
